Test system: fibrin-induced microglia activation
protocolDescription: Image-based assay of fibrin-induced microglia activation (HTS and dose response)
Type: cell-based, rat
conditionSummary: primary HTS, 10 μM, fibrin-stimulated primary microglia
Structures can show the parent of a compound that is named as a salt.
Measured Fibrin % inhibition accompanies every entry in the list below.
Number first, unit second: that is the form wanted.

The cases that follow already have their Fibrin % inhibition on record.
{"compound": "CO/N=C(\\C(=O)N[C@@H]1C(=O)N2C(C(=O)O)=C(COC(C)=O)CS[C@H]12)c1csc(N)n1 [Cefotaxime Sodium]", "systemName": "fibrin-induced microglia activation", "attributeMeasured": "Fibrin % inhibition", "experimentalResult": "−1%"}
{"compound": "Cc1ccc(S(=O)(=O)[N-]Cl)cc1.[Na+] [Chloramine-t]", "systemName": "fibrin-induced microglia activation", "attributeMeasured": "Fibrin % inhibition", "experimentalResult": "4%"}
{"compound": "CCOc1nc2cccc(C(=O)OC(C)OC(=O)OC3CCCCC3)c2n1Cc1ccc(-c2ccccc2-c2nn[nH]n2)cc1 (stereo not drawn) [Candesartan Cilextil]", "systemName": "fibrin-induced microglia activation", "attributeMeasured": "Fibrin % inhibition", "experimentalResult": "−5%"}
{"compound": "CO/N=C(\\C(=O)N[C@@H]1C(=O)N2C(C(=O)O)=C(COC(N)=O)CS[C@H]12)c1ccco1 [Cefuroxime]", "systemName": "fibrin-induced microglia activation", "attributeMeasured": "Fibrin % inhibition", "experimentalResult": "16%"}
{"compound": "COc1cc(OC)c(C(=O)CCCN2CCCC2)c(OC)c1 [Buflomedil, Buflomedil Hydrochloride]", "systemName": "fibrin-induced microglia activation", "attributeMeasured": "Fibrin % inhibition", "experimentalResult": "−37%"}

Fibrin % inhibition lookup needed for Cl.NC1CCN(c2c(F)cc3c(=O)c(C(=O)O)cn(C4CC4)c3c2Cl)C1 (stereo not drawn) [Clinafoxacin Hydrochloride] , thanks. −22%

* * *

System: fibrin- and LPS-induced microglia activation
protocolDescription: cells
Type: cell-based, rat
conditionSummary: quadrant by fibrin and LPS inhibition in HTS of 1907 compounds
attributeMeasured: Quadrant (FIG. 5b)

The cases that follow already have their Quadrant (FIG. 5b) on record.
{"compound": "CCN(CCO)CCCC(C)Nc1ccnc2cc(Cl)ccc12 (centres unmarked) [Hydroxychloroquine]", "systemName": "fibrin- and LPS-induced microglia activation", "attributeMeasured": "Quadrant (FIG. 5b)", "experimentalResult": "Q4"}
{"compound": "O=C1OC2(c3ccc(O)cc3Oc3cc(O)ccc32)c2ccccc21", "systemName": "fibrin- and LPS-induced microglia activation", "attributeMeasured": "Quadrant (FIG. 5b)", "experimentalResult": "Q4"}
{"compound": "CN(C)CCCN1c2ccccc2Sc2ccccc21", "systemName": "fibrin- and LPS-induced microglia activation", "attributeMeasured": "Quadrant (FIG. 5b)", "experimentalResult": "Q1"}
{"compound": "COc1ccc2c(c1)c(CC(=O)O)c(C)n2C(=O)c1ccc(Cl)cc1", "systemName": "fibrin- and LPS-induced microglia activation", "attributeMeasured": "Quadrant (FIG. 5b)", "experimentalResult": "Q4"}

Quadrant (FIG. 5b) lookup needed for `O=C(O)P(=O)(O)O` , thanks. Q4

* * *

Measured inhibition at 10 µM accompanies every entry in the list below.
Test system: fibrin-induced microglia activation
protocolDescription: Image-based assay of fibrin-induced microglia activation (HTS and dose response)
Format: cell-based, rat
conditionSummary: Rattus norvegicus, Microglia, primary microglia HTS, fibrin stimulation, compounds at 10 μM; read-out: Fibrin % inhibition
Counter-ions that a name gives are not always drawn.
Express your answer in %, writing the number without its unit.

{"molecule": "CC1(C)[C@@H](O)CC[C@]2(C)[C@H]3C(=O)C=C4[C@@H]5C[C@@](C)(C(=O)O)CC[C@]5(C)CC[C@@]4(C)[C@]3(C)CC[C@@H]12", "experimentalResult": -40}
{"molecule": "CCN1CC(CCN2CCOCC2)C(c2ccccc2)(c2ccccc2)C1=O (stereo not shown) [Doxapram Hydrochloride]", "experimentalResult": -18}
{"molecule": "CC(=O)Nc1cc([As](=O)(O)O)ccc1O", "experimentalResult": -12}

Here is the next item to consider.
inhibition at 10 µM lookup needed for `N=C(N)c1ccc(/N=N/Nc2ccc(C(=N)N)cc2)cc1` , thanks. -58

* * *

Test system: primary rat microglia
conditionSummary: rat
Counter-ions that a name gives are not always drawn.
Measured Fibrin % cell toxicity accompanies every entry in the list below.
Express your answer in %, writing the number without its unit.

{"molecule": "CC(C)C[C@H](NC(=O)[C@H](Cc1ccccc1)NC(=O)c1cnccn1)B(O)O", "readoutUnits": "%", "experimentalResult": 86}
{"molecule": "OCc1cc(C(O)CNCCCCCCOCCCCc2ccccc2)ccc1O (centres unmarked) [Salmeterol, reference compound]", "readoutUnits": "%", "experimentalResult": 1}
{"molecule": "COc1cc(N)c(Cl)cc1C(=O)NC1CCN(CCCOc2ccc(F)cc2)CC1OC (centres unmarked) [Cisapride]", "readoutUnits": "%", "experimentalResult": 0}
{"molecule": "N[C@@H](Cc1ccc(O)cc1)C(=O)O", "readoutUnits": "%", "experimentalResult": 1}

Fibrin % cell toxicity lookup needed for C=CCN1CC[C@]23c4c5ccc(O)c4O[C@H]2C(=O)CC[C@@]3(O)[C@H]1C5 [Naloxone] , thanks. 1

Fibrin % cell toxicity lookup needed for Cl.N=C(N)NCCC[C@H](N)C(=O)O [Arginine Hydrochloride] , thanks. 0

Fibrin % cell toxicity lookup needed for CCN(CC)CCCC(C)Nc1c2ccc(Cl)cc2nc2ccc(OC)cc12 (centres unmarked) , thanks. 1

Fibrin % cell toxicity lookup needed for Clc1ccc(Cn2c(CN3CCCC3)nc3ccccc32)cc1 [Clemizole Hydrochloride] , thanks. 0

Fibrin % cell toxicity lookup needed for `CN(C)CC[C@@H](c1ccc(Cl)cc1)c1ccccn1` , thanks. 1

Fibrin % cell toxicity lookup needed for [H]/N=C(/N)N[C@H]1[C@H](O)[C@@H](O)[C@H](O[C@@H]2O[C@@H](C)[C@](O)(C=O)[C@H]2O[C@@H]2O[C@@H](CO)[C@H](O)[C@@H](O)[C@@H]2NC)[C@@H](N/C(N)=N\[H])[C@@H]1O [Streptomycin Sulfate] , thanks. 0

Fibrin % cell toxicity lookup needed for `O=C(O)c1ccccc1` , thanks. 0

Fibrin % cell toxicity lookup needed for `C[N+](C)(C)CCOP(=O)(O)OP(=O)([O-])OC[C@H]1O[C@@H](n2ccc(N)nc2=O)[C@H](O)[C@@H]1O` , thanks. 1

Fibrin % cell toxicity lookup needed for CO[C@H]1/C=C/O[C@@]2(C)Oc3c(C)c(O)c4c(O)c(c(/C=N/N5CCN(C)CC5)c(O)c4c3C2=O)NC(=O)/C(C)=C\C=C\[C@H](C)[C@H](O)[C@@H](C)[C@@H](O)[C@@H](C)[C@H](OC(C)=O)[C@@H]1C [Rifampicin] , thanks. 1

Fibrin % cell toxicity lookup needed for CC1CCC(NC(=O)N(CCCl)N=O)CC1 (centres unmarked) , thanks. 1

Fibrin % cell toxicity lookup needed for Oc1ccc(O)cc1 [Hydroquinone] , thanks. 1

Fibrin % cell toxicity lookup needed for `NCCCNCCSP(=O)(O)O` , thanks. 0

Fibrin % cell toxicity lookup needed for `OC[C@@H](O)[C@H]1O[C@@H]2O[C@H](C(Cl)(Cl)Cl)O[C@@H]2[C@H]1O` , thanks. 1

* * *

Test system: primary rat microglia
protocolDescription: Cell toxicity (dead cells, size <150 μm2) in coated fibrin (cFib) assay;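 also: share of dead cells sized under 150 µm2 at 10 µM in fibrin-stimulated microglia HTS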
conditionSummary: primary microglia HTS, fibrin stimulation; decreased size (<150 μm^2) as marker of toxicity
Measured Fibrin % cell toxicity accompanies every entry in the list below.
Number first, unit second: that is the form wanted.

The cases that follow already have their Fibrin % cell toxicity on record.
{"molecule": "O=C(N/N=C/c1ccc([N+](=O)[O-])o1)c1cc([N+](=O)[O-])cc([N+](=O)[O-])c1O", "experimentalResult": "1%"}
{"molecule": "CN1CCOC(c2ccccc2)c2ccccc2C1 (stereo not shown)", "experimentalResult": "0%"}
{"molecule": "CC(=O)OCC(=O)[C@@]12N=C(C)O[C@@H]1C[C@H]1[C@@H]3CCC4=CC(=O)C=C[C@]4(C)[C@H]3[C@@H](O)C[C@@]12C [Deflazacort, reference compound]", "experimentalResult": "2%"}

Fibrin % cell toxicity lookup needed for CN(C)CCc1c[nH]c2ccc(CS(=O)(=O)N3CCCC3)cc12 [Almotriptan, reference compound] , thanks. 2%

* * *

System: primary rat microglia
protocolDescription: Cell toxicity (dead cells, size <150 μm2) in coated fibrin (cFib) assay;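 also: share of dead cells sized under 150 µm2 at 10 µM in fibrin-stimulated microglia HTS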
conditionSummary: primary microglia HTS, fibrin stimulation; decreased size (<150 μm^2) as marker of toxicity
Counter-ions that a name gives are not always drawn.
attributeMeasured: Fibrin % cell toxicity (%)
Express your answer in %, writing the number without its unit.

The cases that follow already have their Fibrin % cell toxicity on record.
{"compound": "CN(C(=O)CN(CCO)CC(=O)N(C)C(C)(C)Cc1ccccc1)C(C)(C)Cc1ccccc1", "Fibrin % cell toxicity, %": 1}
{"compound": "CCCCC(=O)O[C@]1(C(=O)CO)[C@@H](C)C[C@H]2[C@@H]3CCC4=CC(=O)C=C[C@]4(C)[C@@]3(F)[C@@H](O)C[C@@]21C [Betamethasone valerate, reference compound]", "Fibrin % cell toxicity, %": 1}
{"compound": "C[N+]1(C)[C@@H]2C[C@@H](OC(=O)[C@H](CO)c3ccccc3)C[C@H]1[C@@H]1O[C@@H]12 [Methscopolamine Bromide]", "Fibrin % cell toxicity, %": 1}
{"compound": "NS(=O)(=O)c1cc(C2(O)NC(=O)c3ccccc32)ccc1Cl (stereo not shown) [Chlorthalidone, reference compound]", "Fibrin % cell toxicity, %": 2}
{"compound": "COc1ccc(C(=O)c2ccc(C)cc2)c(O)c1", "Fibrin % cell toxicity, %": 1}
{"compound": "CCn1cc(C(=O)O)c(=O)c2cc(F)c(N3CCNCC3)nc21", "Fibrin % cell toxicity, %": 84}

Fibrin % cell toxicity lookup needed for C=N[C@@H](C(=O)N[C@@H]1C(=O)N2[C@@H]1SC(C)(C)[C@@H]2C(=O)O)c1ccccc1 [Metampicillin sodium, reference compound] , thanks. 1

Fibrin % cell toxicity lookup needed for CN1CCc2c(c3ccccc3n2Cc2ccccc2)C1.CN1CCc2c(c3ccccc3n2Cc2ccccc2)C1.O=S(=O)(O)c1cccc2c(S(=O)(=O)O)cccc12 [Mebhydrolin Naphthalenesulfonate] , thanks. 1

Fibrin % cell toxicity lookup needed for CNC(C)(C)Cc1ccccc1 [Mephentermine sulfate, reference compound] , thanks. 2

Fibrin % cell toxicity lookup needed for C[C@H](N)[C@H](O)c1ccc(O)c(O)c1 [Levonordefrin, reference compound] , thanks. 1

# credit: patent US20210330611A1
